test: Inhibition of Plasmodium falciparum falcipain-2 after 12 hrs by fluorescence spectroscopy-based on-bead assay; design: concentration or dose not given beside the values; settings: concentration not given here
Peptide text beside a SMILES is read from it.
Quick reference for inhibition among some molecules

MOLECULE	inhibition, %
CC(C)[C@H](NC(=O)[C@@H](NC(=O)[C@@H](NC(=O)[C@H](Cc1ccccc1)NC(=O)/C=C/C(=O)NCC(=O)NCC(=O)N[C@@H](Cc1ccccc1)C(=O)O)c1ccccc1)C(C)C)C(N)=O (HELM PEPTIDE1{[O=C(/C=C/C(=O)[*:2])NCC(=O)NCC(=O)N[C@@H](Cc1ccccc1)C(=O)O].F.[Phg].V.V.[am]}$$$$V2.0)	35
CC(C)C[C@H](NC(=O)[C@H](Cc1ccccc1)NC(=O)[C@H](CC(N)=O)NC(=O)/C=C/C(=O)N[C@@H](C)C(=O)NCC(=O)N[C@@H](Cc1ccccc1)C(=O)O)C(=O)N[C@H](C(N)=O)C(C)C (HELM PEPTIDE1{[C[C@H](NC(=O)/C=C/C(=O)[*:2])C(=O)NCC(=O)N[C@@H](Cc1ccccc1)C(=O)O].N.F.L.V.[am]}$$$$V2.0)	58
CC(C)C[C@H](NC(=O)[C@H](Cc1ccccc1)NC(=O)[C@H](C)NC(=O)/C=C/C(=O)N[C@@H](C)C(=O)NCC(=O)N[C@@H](Cc1ccccc1)C(=O)O)C(=O)N[C@H](C(N)=O)C(C)C (HELM PEPTIDE1{[C[C@H](NC(=O)/C=C/C(=O)[*:2])C(=O)NCC(=O)N[C@@H](Cc1ccccc1)C(=O)O].A.F.L.V.[am]}$$$$V2.0)	57

* * *

molecular target: Rhodesain (Trypanosoma brucei rhodesiense); experiment: Inhibition of Trypanosoma brucei rhodesiense rhodesain after 12 hrs by fluorescence spectroscopy-based on-bead assay; parameters: concentration or dose not given beside the values; settings: concentration not given here
Peptide text beside a SMILES is read from it.
READOUT_LABEL: inhibition (%)

COMPOUND	READOUT_LABEL	REPORTED_VALUE
CC(=O)NC[C@H](NC(=O)/C=C/C(=O)N[C@@H](C)C(=O)NCC(=O)N[C@@H](Cc1ccccc1)C(=O)O)C(=O)N[C@@H](CC(C)C)C(=O)N[C@H](C(=O)N[C@H](C(N)=O)C(C)C)C(C)C (HELM PEPTIDE1{[C[C@H](NC(=O)/C=C/C(=O)[*:2])C(=O)NCC(=O)N[C@@H](Cc1ccccc1)C(=O)O].[O=C([C@H](CN[*:3])N[*:1])[*:2]].L.V.V.[am]}|PEPTIDE2{[ac]}$PEPTIDE1,PEPTIDE2,2:R3-1:R2$$$V2.0)	inhibition	60
CC(C)C[C@H](NC(=O)[C@H](Cc1ccccc1)NC(=O)[C@H](CC(N)=O)NC(=O)/C=C/C(=O)N[C@@H](C)C(=O)NCC(=O)N[C@@H](Cc1ccccc1)C(=O)O)C(=O)N[C@H](C(N)=O)C(C)C (HELM PEPTIDE1{[C[C@H](NC(=O)/C=C/C(=O)[*:2])C(=O)NCC(=O)N[C@@H](Cc1ccccc1)C(=O)O].N.F.L.V.[am]}$$$$V2.0)	inhibition	64
CC[C@H](C)[C@H](NC(=O)[C@H](C)NC(=O)/C=C/C(=O)NCC(=O)NCC(=O)N[C@@H](Cc1ccccc1)C(=O)O)C(=O)N[C@@H](CC(C)C)C(=O)N[C@H](C(N)=O)C(C)C (HELM PEPTIDE1{[O=C(/C=C/C(=O)[*:2])NCC(=O)NCC(=O)N[C@@H](Cc1ccccc1)C(=O)O].A.I.L.V.[am]}$$$$V2.0)	inhibition	58

* * *

biological target: Rhodesain (Trypanosoma brucei rhodesiense); experiment: Inhibition of Trypanosoma brucei rhodesiense rhodesain after 12 hrs by fluorescence spectroscopy-based on-bead assay; design: concentration or dose not given beside the values; settings: concentration not given here
Peptide text beside a SMILES is read from it.

MOLECULE	MEASUREMENT_UNITS	inhibition
CC(C)C[C@H](NC(=O)[C@@H](NC(=O)[C@H](C)NC(=O)/C=C/C(=O)NCC(=O)NCC(=O)N[C@@H](Cc1ccccc1)C(=O)O)c1ccccc1)C(=O)N[C@H](C(N)=O)C(C)C (HELM PEPTIDE1{[O=C(/C=C/C(=O)[*:2])NCC(=O)NCC(=O)N[C@@H](Cc1ccccc1)C(=O)O].A.[Phg].L.V.[am]}$$$$V2.0)	%	54
CC(C)[C@H](NC(=O)[C@H](C)NC(=O)[C@@H](NC(=O)[C@H](C)NC(=O)/C=C/C(=O)NCC(=O)NCC(=O)N[C@@H](Cc1ccccc1)C(=O)O)c1ccccc1)C(N)=O (HELM PEPTIDE1{[O=C(/C=C/C(=O)[*:2])NCC(=O)NCC(=O)N[C@@H](Cc1ccccc1)C(=O)O].A.[Phg].A.V.[am]}$$$$V2.0)	%	16
CC(C)C[C@H](NC(=O)[C@@H](NC(=O)[C@H](C)NC(=O)/C=C/C(=O)N[C@@H](C)C(=O)NCC(=O)N[C@@H](Cc1ccccc1)C(=O)O)c1ccccc1)C(=O)N[C@H](C(N)=O)C(C)C (HELM PEPTIDE1{[C[C@H](NC(=O)/C=C/C(=O)[*:2])C(=O)NCC(=O)N[C@@H](Cc1ccccc1)C(=O)O].A.[Phg].L.V.[am]}$$$$V2.0)	%	72
CC(C)[C@H](NC(=O)[C@@H](NC(=O)[C@H](Cc1ccccc1)NC(=O)[C@H](C)NC(=O)/C=C/C(=O)NCC(=O)NCC(=O)N[C@@H](Cc1ccccc1)C(=O)O)C(C)C)C(N)=O (HELM PEPTIDE1{[O=C(/C=C/C(=O)[*:2])NCC(=O)NCC(=O)N[C@@H](Cc1ccccc1)C(=O)O].A.F.V.V.[am]}$$$$V2.0)	%	48
CC[C@H](C)[C@H](NC(=O)[C@H](CNC(C)=O)NC(=O)/C=C/C(=O)N[C@@H](C)C(=O)NCC(=O)N[C@@H](Cc1ccccc1)C(=O)O)C(=O)N[C@H](C(=O)N[C@H](C(N)=O)C(C)C)C(C)C (HELM PEPTIDE1{[C[C@H](NC(=O)/C=C/C(=O)[*:2])C(=O)NCC(=O)N[C@@H](Cc1ccccc1)C(=O)O].[O=C([C@H](CN[*:3])N[*:1])[*:2]].I.V.V.[am]}|PEPTIDE2{[ac]}$PEPTIDE1,PEPTIDE2,2:R3-1:R2$$$V2.0)	%	49
CC(=O)NC[C@H](NC(=O)/C=C/C(=O)NCC(=O)NCC(=O)N[C@@H](Cc1ccccc1)C(=O)O)C(=O)N[C@@H](Cc1ccccc1)C(=O)N[C@@H](CC(C)C)C(=O)N[C@H](C(N)=O)C(C)C (HELM PEPTIDE1{[O=C(/C=C/C(=O)[*:2])NCC(=O)NCC(=O)N[C@@H](Cc1ccccc1)C(=O)O].[O=C([C@H](CN[*:3])N[*:1])[*:2]].F.L.V.[am]}|PEPTIDE2{[ac]}$PEPTIDE1,PEPTIDE2,2:R3-1:R2$$$V2.0)	%	51
CC(C)C[C@H](NC(=O)[C@H](C)NC(=O)/C=C/C(=O)NCC(=O)NCC(=O)N[C@@H](Cc1ccccc1)C(=O)O)C(=O)N[C@@H](CC(C)C)C(=O)N[C@H](C(N)=O)C(C)C (HELM PEPTIDE1{[O=C(/C=C/C(=O)[*:2])NCC(=O)NCC(=O)N[C@@H](Cc1ccccc1)C(=O)O].A.L.L.V.[am]}$$$$V2.0)	%	65
CC(C)C[C@H](NC(=O)[C@H](Cc1ccccc1)NC(=O)[C@H](CC(N)=O)NC(=O)/C=C/C(=O)NCC(=O)NCC(=O)N[C@@H](Cc1ccccc1)C(=O)O)C(=O)N[C@H](C(N)=O)C(C)C (HELM PEPTIDE1{[O=C(/C=C/C(=O)[*:2])NCC(=O)NCC(=O)N[C@@H](Cc1ccccc1)C(=O)O].N.F.L.V.[am]}$$$$V2.0)	%	61
CC(C)[C@H](NC(=O)[C@H](C)NC(=O)[C@@H](NC(=O)[C@H](CC(N)=O)NC(=O)/C=C/C(=O)N[C@@H](C)C(=O)NCC(=O)N[C@@H](Cc1ccccc1)C(=O)O)c1ccccc1)C(N)=O (HELM PEPTIDE1{[C[C@H](NC(=O)/C=C/C(=O)[*:2])C(=O)NCC(=O)N[C@@H](Cc1ccccc1)C(=O)O].N.[Phg].A.V.[am]}$$$$V2.0)	%	44
CC(C)[C@H](NC(=O)[C@@H](NC(=O)[C@@H](NC(=O)[C@H](CC(N)=O)NC(=O)/C=C/C(=O)N[C@@H](C)C(=O)NCC(=O)N[C@@H](Cc1ccccc1)C(=O)O)C1CCCCC1)C(C)C)C(N)=O (HELM PEPTIDE1{[C[C@H](NC(=O)/C=C/C(=O)[*:2])C(=O)NCC(=O)N[C@@H](Cc1ccccc1)C(=O)O].N.[O=C([C@@H](N[*:1])C1CCCCC1)[*:2]].V.V.[am]}$$$$V2.0)	%	50
CC[C@H](C)[C@H](NC(=O)[C@H](CNC(C)=O)NC(=O)/C=C/C(=O)NCC(=O)NCC(=O)N[C@@H](Cc1ccccc1)C(=O)O)C(=O)N[C@@H](C)C(=O)N[C@H](C(N)=O)C(C)C (HELM PEPTIDE1{[O=C(/C=C/C(=O)[*:2])NCC(=O)NCC(=O)N[C@@H](Cc1ccccc1)C(=O)O].[O=C([C@H](CN[*:3])N[*:1])[*:2]].I.A.V.[am]}|PEPTIDE2{[ac]}$PEPTIDE1,PEPTIDE2,2:R3-1:R2$$$V2.0)	%	29
